measurementTarget: UniProt:P07437
Sequence (P07437 whole entry): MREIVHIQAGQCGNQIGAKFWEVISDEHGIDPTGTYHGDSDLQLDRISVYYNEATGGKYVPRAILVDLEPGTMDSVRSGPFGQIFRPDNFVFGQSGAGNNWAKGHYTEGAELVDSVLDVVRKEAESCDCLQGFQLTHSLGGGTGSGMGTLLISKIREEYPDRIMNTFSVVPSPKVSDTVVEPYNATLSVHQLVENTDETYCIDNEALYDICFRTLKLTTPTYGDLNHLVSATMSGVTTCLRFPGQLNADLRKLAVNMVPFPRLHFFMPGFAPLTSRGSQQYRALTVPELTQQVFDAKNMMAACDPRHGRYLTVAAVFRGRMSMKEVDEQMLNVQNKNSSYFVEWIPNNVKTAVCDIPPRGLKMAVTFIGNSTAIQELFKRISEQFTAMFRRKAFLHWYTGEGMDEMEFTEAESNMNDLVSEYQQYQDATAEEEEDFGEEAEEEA
test: Inhibition of tubulin beta polymerization in human MCF7 cells after 18 to 24 hrs by ELISA based spectrophotometric analysis
Format: cell-based
pIC50: −log10 of the molar value.
observedProperty: pIC50

O=C(COc1ccc2c(-c3ccccc3)cc(=O)oc2c1)NN1C(=O)CSC1c1ccc(F)cc1 (stereo not drawn) :: 5.03

1. O=C(COc1ccc2c(-c3ccccc3)cc(=O)oc2c1)NN1C(=O)CSC1c1ccc(Cl)cc1 (stereo not drawn)
2. COc1cc(C2SCC(=O)N2NC(=O)COc2ccc3c(-c4ccccc4)cc(=O)oc3c2)cc(OC)c1OC (stereo not drawn)
q: Between the two listed entries 1 and 2 , which has its pIC50 at the higher number? Please respond with the label that marks your chosen entry.
a: 1
